# system: hSCN3A (Homo sapiens)
# experimental-protocol: SCN3A inhibitory activity in HEK cells stably expressing hSCN3A (whole-cell patch clamp / radiotracer efflux HTS)
# reported-conditions: HEK cells stably transfected with hSCN3A
pIC50: −log10 of the molar value.
measurement-name: pIC50

Use these answered entries as a reference point.
{"columns": ["molecule-smiles", "system", "pIC50"],
 "data": [
  ["Cc1ccccc1CCc1c[nH]c(-c2ccc(S(=O)(=O)Nc3nccs3)cc2)n1", "hSCN3A (Homo sapiens)", "6.00 to 6.30"],
  ["O=S(=O)(Nc1nccs1)c1ccc(-c2nc(Cc3cccc(OC(F)(F)F)c3)c[nH]2)cc1", "hSCN3A (Homo sapiens)", "6.00 to 6.30"],
  ["O=S(=O)(Nc1nccs1)c1ccc(-c2cc(CCCOc3ccc(Cl)cc3Cl)[nH]n2)cc1", "hSCN3A (Homo sapiens)", "6.30 to 7.00"]
]}

# evaluate next
Bench note: what pIC50 did `O=S(=O)(Nc1nccs1)c1ccc(-c2ncc(Cc3cc(F)cc(F)c3)[nH]2)cc1` show?
6.30 to 7.00

----------
# system: hSCN3A (Homo sapiens, UniProt Q9NY46)
# Sequence (Q9NY46 whole entry): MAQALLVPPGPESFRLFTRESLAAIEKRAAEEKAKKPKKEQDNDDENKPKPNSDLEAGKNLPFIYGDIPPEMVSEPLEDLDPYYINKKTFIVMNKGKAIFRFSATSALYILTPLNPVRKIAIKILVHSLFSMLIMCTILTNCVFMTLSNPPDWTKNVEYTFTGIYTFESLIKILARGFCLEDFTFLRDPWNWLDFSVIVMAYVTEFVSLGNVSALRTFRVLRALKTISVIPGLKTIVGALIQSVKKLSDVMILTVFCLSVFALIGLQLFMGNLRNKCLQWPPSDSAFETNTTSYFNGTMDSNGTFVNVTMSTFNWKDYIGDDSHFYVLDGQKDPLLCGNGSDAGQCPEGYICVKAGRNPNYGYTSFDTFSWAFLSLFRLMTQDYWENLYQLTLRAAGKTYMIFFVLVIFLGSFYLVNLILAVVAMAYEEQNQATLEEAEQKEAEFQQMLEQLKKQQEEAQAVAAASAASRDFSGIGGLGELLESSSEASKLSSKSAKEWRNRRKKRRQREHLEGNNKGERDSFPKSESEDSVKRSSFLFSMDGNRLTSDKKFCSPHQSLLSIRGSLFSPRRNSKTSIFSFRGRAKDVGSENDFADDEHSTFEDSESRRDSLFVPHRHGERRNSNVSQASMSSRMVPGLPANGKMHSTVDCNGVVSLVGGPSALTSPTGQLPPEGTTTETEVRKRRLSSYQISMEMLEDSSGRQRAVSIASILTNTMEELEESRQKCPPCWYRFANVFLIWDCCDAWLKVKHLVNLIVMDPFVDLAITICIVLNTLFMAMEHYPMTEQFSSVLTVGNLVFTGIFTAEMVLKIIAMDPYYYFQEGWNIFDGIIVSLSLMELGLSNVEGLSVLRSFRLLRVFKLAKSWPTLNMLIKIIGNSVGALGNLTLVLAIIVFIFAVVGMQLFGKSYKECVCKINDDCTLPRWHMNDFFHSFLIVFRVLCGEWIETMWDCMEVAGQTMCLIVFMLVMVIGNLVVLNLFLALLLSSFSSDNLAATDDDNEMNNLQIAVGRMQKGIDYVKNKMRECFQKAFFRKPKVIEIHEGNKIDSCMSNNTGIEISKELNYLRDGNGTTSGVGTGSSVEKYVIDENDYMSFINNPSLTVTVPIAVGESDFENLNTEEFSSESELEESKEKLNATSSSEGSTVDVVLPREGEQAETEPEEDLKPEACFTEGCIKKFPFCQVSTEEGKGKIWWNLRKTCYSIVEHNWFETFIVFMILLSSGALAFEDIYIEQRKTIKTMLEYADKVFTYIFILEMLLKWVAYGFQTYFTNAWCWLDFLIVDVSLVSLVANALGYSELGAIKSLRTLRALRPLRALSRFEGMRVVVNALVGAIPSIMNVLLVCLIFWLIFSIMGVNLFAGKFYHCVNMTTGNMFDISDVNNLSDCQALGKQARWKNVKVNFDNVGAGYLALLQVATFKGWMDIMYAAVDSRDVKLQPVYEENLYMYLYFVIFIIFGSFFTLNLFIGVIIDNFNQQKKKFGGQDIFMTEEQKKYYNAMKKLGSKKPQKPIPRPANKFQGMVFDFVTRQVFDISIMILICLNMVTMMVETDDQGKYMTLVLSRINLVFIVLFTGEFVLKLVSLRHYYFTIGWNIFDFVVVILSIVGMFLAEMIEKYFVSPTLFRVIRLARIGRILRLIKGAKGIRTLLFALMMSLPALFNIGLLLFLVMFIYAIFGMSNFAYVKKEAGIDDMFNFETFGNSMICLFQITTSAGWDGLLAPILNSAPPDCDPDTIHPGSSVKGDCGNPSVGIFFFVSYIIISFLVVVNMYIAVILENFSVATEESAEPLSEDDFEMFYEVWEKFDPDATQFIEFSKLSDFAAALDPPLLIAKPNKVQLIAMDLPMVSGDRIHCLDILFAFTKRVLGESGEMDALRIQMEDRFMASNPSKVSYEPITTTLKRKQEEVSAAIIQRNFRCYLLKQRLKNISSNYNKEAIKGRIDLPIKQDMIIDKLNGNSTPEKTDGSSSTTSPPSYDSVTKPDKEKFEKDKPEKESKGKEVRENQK
# experimental-protocol: SCN3A inhibitory activity in HEK cells stably expressing hSCN3A (whole-cell patch clamp / radiotracer efflux HTS)
# reported-conditions: HEK cells stably transfected with hSCN3A
The following compounds are listed with their measured IC50 values.

Record excerpt, results attached:
{"columns": ["compound", "IC50"],
 "data": [
  ["O=S(=O)(Nc1nccs1)c1ccc(-c2nc(Cc3ccc(Oc4ccccc4)cc3)c[nH]2)cc1", "< 100 nM"],
  ["O=S(=O)(Nc1nccs1)c1ccc(-c2nc(Cc3ccccc3C(F)(F)F)c[nH]2)cc1", "100 to 500 nM"],
  ["O=S(=O)(Nc1nccs1)c1ccc(-c2nc(Cc3ccc(Cl)c(Cl)c3)c[nH]2)cc1", "< 100 nM"],
  ["O=S(=O)(Nc1nccs1)c1ccc(-c2nc(CCCOc3ccc(Cl)cc3)c[nH]2)cc1", "500 to 1000 nM"],
  ["CC1(c2ccc(S(=O)(=O)Nc3nccs3)cc2)NC(=O)N(Cc2ccc(Cl)c(Cl)c2)C1=O (stereo not shown)", "> 1000 nM"],
  ["O=S(=O)(NCc1nccs1)c1ccc(-c2nc(Cc3cc(F)cc(F)c3)c[nH]2)cc1", "> 1000 nM"]
]}

Record `O=S(=O)(Cc1ncc(Cl)s1)c1ccc(-c2nc(CCc3cc(Cl)cc(Cl)c3)c[nH]2)cc1` : what is its IC50 with hSCN3A (Homo sapiens, UniProt Q9NY46)?
< 100 nM

Lab request: please report IC50 under test system hSCN3A (Homo sapiens, UniProt Q9NY46) for `O=S(=O)(Nc1nccs1)c1ccc(-c2nc(COc3ncc(C(F)(F)F)cc3Cl)n[nH]2)cc1`
500 to 1000 nM

What reported IC50 corresponds to `O=S(=O)(Nc1nccs1)c1ccc(-c2ncc(Cc3ccc(Cl)cc3)[nH]2)cc1` on hSCN3A (Homo sapiens, UniProt Q9NY46)?
100 to 500 nM

----------
# system: hSCN3A (Homo sapiens, UniProt Q9NY46)
# Construct: expressed in transfected cells
# experimental-protocol: SCN3A inhibitory activity in HEK cells stably expressing hSCN3A (whole-cell patch clamp / radiotracer efflux HTS)
# Assay type: cell-based
# reported-conditions: HEK cells stably transfected with hSCN3A
Catalogue of IC50 values

{"columns": ["molecule-smiles", "result"],
 "data": [
  ["O=S(=O)(Nc1nccs1)c1ccc(-c2nc(-c3ccccc3)c(-c3ccccc3)[nH]2)cc1", "0.1 to 0.5 µM"]
]}

Dear colleague, I am looking for the recorded IC50 of the following compound: `Cc1cccc(Cc2c[nH]c(-c3ccc(S(=O)(=O)Nc4nccs4)cc3)n2)c1`
0.1 to 0.5 µM

What value of IC50 has been reported for the following compound? `Cc1ccc(Cc2c[nH]c(-c3ccc(S(=O)(=O)Nc4nccs4)cc3)n2)cc1`
> 1 µM
